# protocol_notes: Plasma protein binding in human
# Type: ADME, cell-free
# condition_parameters: read-out: PPB (converted)

[
  {
    "smiles_str": "Cc1noc2c1-c1sc(C)c(C)c1C(c1ccc(N)nc1)=N[C@H]2CC(N)=O",
    "fraction unbound": 0.006
  },
  {
    "smiles_str": "Cc1noc2c1-c1sc(C)c(C)c1C(c1ccc(C#N)cc1)=N[C@H]2CC(N)=O",
    "fraction unbound": 0.041
  },
  {
    "smiles_str": "Cc1noc2c1-c1sc(C)c(C)c1C(c1ccccc1)=N[C@H]2CC(N)=O",
    "fraction unbound": 0.018
  },
  {
    "smiles_str": "Cc1noc2c1-c1sc(C)c(C)c1C(c1ccc(Cl)cc1)=N[C@H]2CC(N)=O",
    "fraction unbound": 0.006
  }
]
